- TARGET OF ASSAY: Neuropeptide S receptor (Homo sapiens)
- ASSAY SUMMARY: Confirmation Concentration-Response Assay for Antagonists of the Neuropeptide S Receptor: Robust Characterization of cAMP Signal Transduction
- CONDITIONS: CHO-NPSR cells, NPS-stimulated cAMP TR-FRET; series mostly up to 50.7 µM
Inconclusive results are not listed. Active and inactive are the calls of the source. Calls follow the shape of the dose curve; as a rule, active = well fitted curve in either direction with a large enough effect; inconclusive = small, poorly fitted or top-dose-only effect; inactive = flat fitted curve, though single readings scatter.
MEASUREMENT NAME: Potency

{"MOLECULE": "CCOC(=O)CCC(=O)Nc1ncnc2c1C(c1ccccc1)c1c(ccc3ccccc13)O2 (centres undefined)", "TARGET OF ASSAY": "Neuropeptide S receptor (Homo sapiens)", "VALUE": "3.45 µM (active)"}
{"MOLECULE": "COc1ccccc1C1c2c(ncn(-c3ccccc3)c2=N)Oc2ccc3ccccc3c21 (centres undefined)", "TARGET OF ASSAY": "Neuropeptide S receptor (Homo sapiens)", "VALUE": "4.34 µM (active)"}
{"MOLECULE": "COc1ccc(C2c3c(nc(CCCc4ccccc4)[nH]c3=O)Oc3ccc4ccccc4c32)cc1OC (centres undefined)", "TARGET OF ASSAY": "Neuropeptide S receptor (Homo sapiens)", "VALUE": "inactive"}
{"MOLECULE": "O=C(c1ccccc1)N(C(=O)c1ccccc1)c1ncnc2c1C(c1ccccc1)c1c(ccc3ccccc13)O2 (centres undefined)", "TARGET OF ASSAY": "Neuropeptide S receptor (Homo sapiens)", "VALUE": "1.54 µM (active)"}
{"MOLECULE": "COc1ccc(C2c3c(n(CCCc4ccccc4)cnc3=N)Oc3ccc4ccccc4c32)cc1OC (centres undefined)", "TARGET OF ASSAY": "Neuropeptide S receptor (Homo sapiens)", "VALUE": "24.4 µM (active)"}
{"MOLECULE": "COc1ccc2c(c1)Oc1ncn(CCN3CCOCC3)c(=N)c1C2c1ccc(OC)c(OC)c1 (centres undefined)", "TARGET OF ASSAY": "Neuropeptide S receptor (Homo sapiens)", "VALUE": "13.7 µM (active)"}
{"MOLECULE": "CCOC(=O)CCCC(=O)Nc1ncnc2c1C(c1ccccc1)c1c(ccc3ccccc13)O2 (centres undefined)", "TARGET OF ASSAY": "Neuropeptide S receptor (Homo sapiens)", "VALUE": "2.44 µM (active)"}
{"MOLECULE": "N=c1c2c(ccn1CCc1ccccc1)Oc1ccc3ccccc3c1C2c1ccccc1 (centres undefined)", "TARGET OF ASSAY": "Neuropeptide S receptor (Homo sapiens)", "VALUE": "3.87 µM (active)"}
{"MOLECULE": "COc1ccc(C2C3=C(N=CN(CCN4CCOCC4)C3N)Oc3ccccc32)cc1OC (centres undefined)", "TARGET OF ASSAY": "Neuropeptide S receptor (Homo sapiens)", "VALUE": "inactive"}

---

Each entry below carries its reported Potency.
- TARGET OF ASSAY: Neuropeptide S receptor (Homo sapiens) (UniProt Q6W5P4)
- Sequence (Q6W5P4 whole entry, looked up): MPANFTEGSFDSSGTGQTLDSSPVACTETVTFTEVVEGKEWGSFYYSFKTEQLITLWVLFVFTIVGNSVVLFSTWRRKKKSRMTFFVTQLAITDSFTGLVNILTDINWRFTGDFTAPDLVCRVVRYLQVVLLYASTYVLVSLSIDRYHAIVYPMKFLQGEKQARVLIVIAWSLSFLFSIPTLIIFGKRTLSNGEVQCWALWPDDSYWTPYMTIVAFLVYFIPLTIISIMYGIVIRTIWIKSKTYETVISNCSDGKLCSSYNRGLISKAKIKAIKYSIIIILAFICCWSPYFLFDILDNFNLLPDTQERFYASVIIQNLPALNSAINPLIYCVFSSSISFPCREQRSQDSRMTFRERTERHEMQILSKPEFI
- ASSAY SUMMARY: Confirmation Concentration-Response Assay for Antagonists of the Neuropeptide S Receptor: Robust Characterization of cAMP Signal Transduction
- CONDITIONS: CHO-NPSR cells, NPS-stimulated cAMP TR-FRET; series mostly up to 50.7 µM
Results filed as inconclusive are left out. Active and inactive are the calls of the source. Calls follow the shape of the dose curve; as a rule, active = well fitted curve in either direction with a large enough effect; inconclusive = small, poorly fitted or top-dose-only effect; inactive = flat fitted curve, though single readings scatter.

{"COMPOUND": "COc1ccc(C2c3c(N)nc(CCc4ccccc4)nc3Oc3ccc4ccccc4c32)cc1OC (stereo not given)", "Potency": "24.4 µM (active)"}
{"COMPOUND": "COc1cccc(C2c3c(ncn(-c4ccccc4C)c3=N)Oc3ccc4ccccc4c32)c1 (stereo not given)", "Potency": "6.88 µM (active)"}
{"COMPOUND": "O=C(CCc1ccccc1)Nc1ncnc2c1C(c1ccccc1)c1c(ccc3ccccc13)O2 (stereo not given)", "Potency": "4.34 µM (active)"}
{"COMPOUND": "CCOC(=O)CC(=O)Nc1ncnc2c1C(c1ccccc1)c1c(ccc3ccccc13)O2 (stereo not given)", "Potency": "3.07 µM (active)"}
{"COMPOUND": "COc1cccc(C2c3c(ncn(CCCN4CCOCC4)c3=N)Oc3ccc4ccccc4c32)c1 (stereo not given)", "Potency": "4.87 µM (active)"}

---

- TARGET OF ASSAY: Neuropeptide S receptor (Homo sapiens) (UniProt Q6W5P4)
- ASSAY SUMMARY: Confirmation Concentration-Response Assay for Antagonists of the Neuropeptide S Receptor: Robust Characterization of cAMP Signal Transduction
- CONDITIONS: CHO-NPSR cells, NPS-stimulated cAMP TR-FRET; series mostly up to 50.7 µM
Results filed as inconclusive are left out. Activity calls are given as the source filed them. The call rests on the fitted dose curve; in most records, active means well fitted curve in either direction with a large enough effect; inconclusive means small, poorly fitted or top-dose-only effect; inactive means flat fitted curve, though single readings scatter.
Outcomes: 1 (active), 0 (inactive)

{"COMPOUND": "COc1ccc(C2c3ccc4ccccc4c3Oc3ncn(CCN4CCOCC4)c(=N)c32)cc1OC (stereo not given)", "ANSWER LABEL": 1}
{"COMPOUND": "Nc1ncnc2c1C(c1ccccc1)c1c(ccc3ccccc13)O2 (stereo not given)", "ANSWER LABEL": 1}
{"COMPOUND": "Fc1ccc(-c2c(P(=S)(c3ccccc3)c3ccccc3)n3ccccc3[n+]2C/C=C/c2ccccc2)cc1", "ANSWER LABEL": 1}
{"COMPOUND": "S=P(c1ccccc1)(c1ccccc1)c1c[n+](C/C=C/c2ccccc2)c2ccccn12", "ANSWER LABEL": 1}
{"COMPOUND": "COc1ccc(-n2cnc3c(c2=N)C(c2cccc(OC)c2)c2c(ccc4ccccc24)O3)cc1 (stereo not given)", "ANSWER LABEL": 1}
{"COMPOUND": "COc1cccc(C2c3c(ncn(-c4ccc(C#N)cc4)c3=N)Oc3ccc4ccccc4c32)c1 (stereo not given)", "ANSWER LABEL": 1}
{"COMPOUND": "N=c1c2c(ccn1CCCc1ccccc1)Oc1ccc3ccccc3c1C2c1ccccc1 (stereo not given)", "ANSWER LABEL": 1}
{"COMPOUND": "Cc1nc2ccccn2c1C(O)(c1ccccc1)c1ccccc1", "ANSWER LABEL": 0}
{"COMPOUND": "COc1cccc(C2C(C#N)=C(NC(=O)CCc3ccccc3)Oc3ccc4ccccc4c32)c1 (stereo not given)", "ANSWER LABEL": 0}
{"COMPOUND": "O=C(NCc1ccccc1)Nc1ncnc2c1C(c1ccccc1)c1c(ccc3ccccc13)O2 (stereo not given)", "ANSWER LABEL": 1}
